These entries and their values trace back to PubChem BioAssay (NCI).

system: LOX IMVI melanoma; assay: NCI-60 one-dose screen, 48 h; details: 10 µM unless noted
About 83,000 compounds went through this panel and 20% of them were active in at least one assay; those are over-represented in the sample as a whole. Active and inactive are the calls of the source. How the source made its calls: active means growth percent below 10; inactive means the rest.
Permitted responses: true for active, false for inactive

Below are worked cases with known answers.
Asked: What outcome does the record of this test show for `N#CCCNc1ccccc1` ?
Given back: false

Asked: State the result this test recorded for `C/C(=C\c1ccn(-c2ccccc2N)n1)[C@@H]1C[C@@H]2O[C@]2(C)CCC[C@H](C)[C@H](O)[C@@H](C)C(=O)C(C)(C)[C@@H](O)CC(=O)O1` .
Given back: false

Asked: State the result this test recorded for `CCCCCC1(CCBr)C(=O)NC(=O)NC1=O` .
Given back: false

Others:
Asked: Write down the call the test reported for this molecule. Item: `CC(=O)O[C@H](C[C@H](C(C)C)N(C)C(=O)[C@@H](NC(=O)[C@H]1CCCCN1C)C(C)C)c1nc(C(=O)N[C@@H](Cc2ccccc2)C[C@H](C)C(=O)O)c(C)s1`
Given back: false

Asked: Please state the recorded outcome for this molecule: `CCOc1ccccc1C(=O)OCC(Cl)(Cl)Cl`
Given back: false

Asked: For `COc1ccc(/C=C\c2cc(OC)c(OC)c(OC)c2)cc1OCC(=O)Nc1nc2ccc(F)cc2s1` , what call appears in the results of this test?
Given back: false

Asked: Hi team, can someone confirm the assay call for `Fc1ccc(N2COOC3(OOC2)C2CC4CC(C2)CC3C4)cc1` ?
Given back: true

Asked: Per the records of this test, what outcome belongs to `Cc1cc(C)cc(Nc2nc3c(s2)CC[C@@]2(C)C3=CC[C@@H]3[C@@H]2CC[C@]2(C)C(=O)CC[C@@H]32)c1` ?
Given back: true

Asked: Called result for `CC(C)CCC1(CCCl)C(=O)NC(=O)NC1=O`
Given back: false

Asked: Test call, this molecule: `CC[C@H](C)[C@@H]1OC(=O)C(C)(C)[C@H](O)[C@H](Cc2ccccc2)OC(=O)[C@H](C(C)C)OC(=O)[C@@H](NC(=O)c2cccc(NC=O)c2O)[C@@H](C)OC1=O`
Given back: false

Asked: Lab log entry: CN1CCC(c2c[nH]c3ccccc23)C1 (stereo unspecified) — outcome as called in the assay?
Given back: false

Asked: Name the outcome recorded for `O=NN1CCCc2cccc(O)c21` in the assay.
Given back: false

Asked: I would be grateful if you could indicate the recorded call for `c1ccc(Nc2nc(-c3ccccc3)c[se]2)cc1` .
Given back: false

Asked: GET /call?item= `CC(C)(NC(=O)O[C@@H]1CN2CCC1CC2)c1csc(-c2ccc(F)cc2)n1` returns the recorded outcome of this test.
Given back: false

Asked: Could you please tell me the result logged for CC(CO)NC1CCCCC1 (stereo unspecified) in this assay?
Given back: false

Asked: Fill in: this test's call for `CN(C)C(=O)Oc1ccccc1-c1ccccc1` is ___
Given back: false

Asked: # lookup: test call for `COc1ccc(C2=N[C@@H](Cc3ccccc3)C(=O)Nc3ccsc32)cc1`
Given back: false

###

test system: HS 578T breast; assay: NCI-60 one-dose screen, 48 h; conditions: 10 µM unless noted
About 83,000 compounds went through this panel and 20% of them were active in at least one assay; those are over-represented in the sample as a whole. Activity calls are given as the source filed them. Rule for the calls: active = growth percent below 10; inactive = the rest.
The reply should name one outcome from active, inactive

Reference set, count: 2
Asked: Please indicate how the test categorized `C=CCCCCCCCCC(=O)[O-].C=CCCCCCCCCC(=O)[O-].[Zn+2]` .
Given back: inactive

Asked: // param item: CC(C)(C)N1CC1C#N (stereo unspecified) ; yields the recorded call
Given back: inactive

Continuing:
Asked: Answer briefly: the call reported for `CC(C)(N)Cc1ccccc1` in this assay.
Given back: inactive

Asked: Give the logged outcome of this assay for the following compound: `COC(=O)[C@@]1(C)CC[C@]2(C)CC[C@]3(C)C4=CC(=O)c5c(cc(O)c(O)c5C)[C@]4(C)CC[C@@]3(C)[C@@H]2C1`
Given back: inactive

Asked: Hi, sorry to bother you, what did the test record for `COc1ccc(C(O)(C(=O)O)c2ccc(OC)cc2)cc1` ?
Given back: inactive

Asked: Test call, this compound: `CC(=O)O[C@H](C[C@H](C(C)C)N(C)C(=O)[C@@H](NC(=O)[C@H]1CCCCN1C)C(C)C)c1nc(C(=O)N[C@@H](Cc2ccccc2)C[C@H](C)C(=O)O)c(CCOCc2ccccc2)s1`
Given back: inactive

Asked: # fetch the recorded call for `O=C(O)c1c(Cl)n(Cc2ccc(O)cc2)c2ccc(O)cc12` here
Given back: inactive

Asked: Tell me the recorded outcome of this test for COc1cccc(C=NC(Cc2cnc[nH]2)C(=O)O)c1O (stereo unspecified) .
Given back: inactive

Asked: Any idea what this test logged for `C/C(=C\c1ccn(-c2ccc(N)cc2)n1)[C@@H]1C[C@@H]2O[C@]2(C)CCC[C@H](C)[C@H](O)[C@@H](C)C(=O)C(C)(C)[C@@H](O)CC(=O)O1` ?
Given back: inactive

Asked: Dear colleague, could you share the recorded outcome for O=C(O)C1C(C(=O)O)C2(Cl)C(Cl)=C(Cl)C1(Cl)C2(Cl)Cl.[Hg] (stereo unspecified) when you have a moment?
Given back: inactive

Asked: Test call for this compound, please: CCCCCCCCCCCCCCCCCC1OC[C@H](COC(=O)O[C@@H](C(=O)O[C@H]2C[C@@]3(O)[C@@H](OC(=O)c4ccccc4)[C@@H]4[C@]5(OC(C)=O)CO[C@@H]5C[C@H](O)[C@@]4(C)C(=O)[C@H](OC(C)=O)C(=C2C)C3(C)C)[C@@H](NC(=O)c2ccccc2)c2ccccc2)O1 (stereo partly specified)
Given back: inactive

Asked: Entry `CC(C)[C@]12O[C@H]1[C@@H]1O[C@]13[C@]1(O[C@H]1C[C@H]1c4c(C(=O)c5ccccc5)oc(OC(=O)c5ccccc5)c4CC[C@@]13C)[C@@H]2O` : call = ?
Given back: active

Asked: Assay result, entry COC(=O)C1CCC(NC(=O)c2csc([C@@H](C[C@H](C(C)C)N(C)C(=O)[C@@H](NC(=O)[C@H]3CCCCN3C)C(C)C)OC(C)=O)n2)CC1 (stereo partly specified) — outcome?
Given back: inactive

Asked: Query: recorded result category for `COc1ccc(/C=C\c2cc(OC)c(OC)c(OC)c2)cc1OCC(=O)Nc1nc2ccc(OC(F)(F)F)cc2s1` in this test
Given back: inactive

Asked: Which outcome did this test record for the compound `c1cnc2[nH]cc(-c3csc(-c4cn(CCCCN5CCOCC5)c5ccccc45)n3)c2c1` ?
Given back: inactive

Asked: Hello, I am checking results. What call was entered for `CN(C)CCCOc1ccc2c(c1)c(C(=O)C(=O)NCCO)cn2Cc1ccccc1` ?
Given back: inactive
